These data points were gathered from patent US20240400638A1.

# targetOfAssay: T1, human RXFP1 (human, UniProt Q9HBX9 1-757)
# T1 sequence (looked up): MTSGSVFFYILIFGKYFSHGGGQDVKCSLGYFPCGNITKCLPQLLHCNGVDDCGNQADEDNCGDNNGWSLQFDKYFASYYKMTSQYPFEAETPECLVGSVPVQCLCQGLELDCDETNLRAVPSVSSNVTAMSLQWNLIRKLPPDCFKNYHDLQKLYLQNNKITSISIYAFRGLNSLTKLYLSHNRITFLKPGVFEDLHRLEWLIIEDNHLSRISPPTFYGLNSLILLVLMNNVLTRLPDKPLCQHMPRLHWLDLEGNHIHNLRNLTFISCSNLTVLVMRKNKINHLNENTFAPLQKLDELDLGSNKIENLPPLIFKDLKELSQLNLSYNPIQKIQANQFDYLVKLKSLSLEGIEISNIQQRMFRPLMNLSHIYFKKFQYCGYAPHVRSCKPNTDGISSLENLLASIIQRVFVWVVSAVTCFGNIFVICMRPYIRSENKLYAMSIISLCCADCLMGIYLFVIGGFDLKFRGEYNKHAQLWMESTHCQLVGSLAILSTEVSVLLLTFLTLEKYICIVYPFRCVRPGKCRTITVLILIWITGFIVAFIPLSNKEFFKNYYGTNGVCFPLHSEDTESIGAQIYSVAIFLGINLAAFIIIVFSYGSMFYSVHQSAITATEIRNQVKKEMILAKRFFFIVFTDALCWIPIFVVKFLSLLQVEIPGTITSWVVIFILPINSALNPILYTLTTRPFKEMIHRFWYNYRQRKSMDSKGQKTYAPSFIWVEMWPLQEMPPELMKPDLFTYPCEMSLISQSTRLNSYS
# experimentalProtocol: cell-based or functional assay
Numbered stars: 1 amine (or outer) side, 2 acyl side, 3 side chain; on linkers, the order of the positions; unused ones are H or OH. Square brackets hold non-standard residues; d marks the D form. Side chains are listed from the residue outwards. * marks the point of attachment. TTDS = 4-[3-[2-[2-(3-aminopropoxy)ethoxy]ethoxy]propylamino]-4-oxo-butanoyl; γGlu = O=C(O)[C@H](CCC(=O)[*:2])N[*:1]; Palmitoyl = CCCCCCCCCCCCCCCC(=O)*; αMeF = C[C@](N)(Cc1ccccc1)C(=O)O; Aib = CC(C)(N)C(=O)O
measurementName: EMax, OVCAR 5 cells (cAMP) (%)
Record the value in %, omitting the unit from your answer.

// query Any idea what its EMax, OVCAR 5 cells (cAMP) is? The binder is Ac-LEGREKVRAK(Ac)I[Aib][Aib]EGK([TTDS-TTDS-TTDS-γGlu-γGlu-γGlu-Palmitoyl])ST[αMeF]SRRAK(Ac)-NH2 [Relaxin peptide analogue of SEQ ID NO: 89]
// result 97

Now for another entry.
// query Any idea what its EMax, OVCAR 5 cells (cAMP) is? The binder is Ac-LEGREKVRAK(Ac)I[Aib][Aib]EGK([TTDS-TTDS-TTDS-γGlu-γGlu-γGlu-Palmitoyl])STWS[Aib]RK(Ac)K-NH2 [Relaxin peptide analogue of SEQ ID NO: 68]
// result 98
